- TESTED_SYSTEM: PDGFR-β kinase (Homo sapiens, UniProt P09619)
- Construct: recombinant N-terminal 6×His-tagged PDGFR-β kinase domain construct expressed by baculovirus; 6xHis (N); made in house
- Sequence (P09619 600-962 limits assumed): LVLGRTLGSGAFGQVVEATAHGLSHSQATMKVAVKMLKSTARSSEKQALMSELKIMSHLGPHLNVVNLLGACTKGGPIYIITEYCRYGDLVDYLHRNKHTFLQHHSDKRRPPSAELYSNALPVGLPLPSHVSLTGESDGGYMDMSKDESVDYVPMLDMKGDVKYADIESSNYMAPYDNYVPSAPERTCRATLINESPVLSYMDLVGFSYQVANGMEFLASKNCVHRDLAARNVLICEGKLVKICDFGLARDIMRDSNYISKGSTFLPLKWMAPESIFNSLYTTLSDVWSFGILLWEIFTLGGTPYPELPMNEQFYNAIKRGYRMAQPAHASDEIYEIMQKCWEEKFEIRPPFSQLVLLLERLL
- TEST_DETAILS: PDGFR-β kinase assay (33P incorporation into Poly(Glu-Tyr))
- Type: biochemical
- TEST_CONDITIONS: 500 nM test compound
EXPERIMENTAL_READOUT: inhibition at 0.5 µM (%)

Some entries whose results are on file:
1) CCOC(=O)CCc1c(/C=C2\C(=O)Nc3ccc(NC(=O)Nc4ccccc4)cc32)[nH]c2c1C(=O)CCC2 : 24
2) O=C(O)CCc1c(/C=C2\C(=O)Nc3ccc(NCc4ccccc4)cc32)[nH]c2c1C(=O)CCC2 : 29.3
3) CCOC(=O)CCc1c(/C=C2\C(=O)Nc3ccc(-c4ccc(OC)c(OC)c4)cc32)[nH]c2c1C(=O)CCC2 : 22

[A] O=C(O)CCc1c(/C=C2\C(=O)Nc3ccc([N+](=O)[O-])cc32)[nH]c2c1C(=O)CCC2
[B] CCOC(=O)CCc1c(/C=C2\C(=O)Nc3ccc(NC(=O)Nc4ccc(F)cc4)cc32)[nH]c2c1C(=O)CCC2
[C] CCOC(=O)CCc1c(/C=C2\C(=O)Nc3ccc(NC(=O)Nc4ccc(C)cc4)cc32)[nH]c2c1C(=O)CCC2
[D] CCOC(=O)CCc1c(/C=C2\C(=O)Nc3ccc(NC(=O)Nc4cccc5ccccc45)cc32)[nH]c2c1C(=O)CCC2
Task for the reader: rank each entry by its inhibition at 0.5 µM, from the minimum upward. # format: label list in the order the request specifies
D, C, B, A

[I] CNS(=O)(=O)c1ccc2c(c1)/C(=C/c1[nH]c3c(c1CCC(=O)O)C(=O)CCC3)C(=O)N2
[II] O=C(O)CCc1c(/C=C2\C(=O)Nc3ccccc32)[nH]c2c1C(=O)CCC2
Please state the entry with greater inhibition at 0.5 µM among I and II . Indicate your choice by writing its label.
II

Hey, just so you know, these numbers are from patent US7897602B2.
